# System tested: RARα (Homo sapiens)
# Sequence (P10276 1-462): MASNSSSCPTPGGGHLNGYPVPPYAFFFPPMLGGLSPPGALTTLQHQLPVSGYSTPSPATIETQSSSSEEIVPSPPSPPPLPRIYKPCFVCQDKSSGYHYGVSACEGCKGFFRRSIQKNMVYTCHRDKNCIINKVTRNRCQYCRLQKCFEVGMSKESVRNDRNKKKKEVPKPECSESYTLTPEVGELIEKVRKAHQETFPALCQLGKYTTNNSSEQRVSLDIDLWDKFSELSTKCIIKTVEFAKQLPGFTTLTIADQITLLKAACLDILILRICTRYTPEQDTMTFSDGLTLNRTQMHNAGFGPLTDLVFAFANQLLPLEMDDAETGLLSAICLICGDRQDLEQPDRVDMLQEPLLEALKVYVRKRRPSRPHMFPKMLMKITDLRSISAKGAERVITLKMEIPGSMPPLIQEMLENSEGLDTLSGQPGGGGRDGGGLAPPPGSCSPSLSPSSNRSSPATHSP
Experimental endpoint: Ki (µM)

Please review the entries below; each comes with its answer.
Compound: CC1(C)CC(C)(C)c2cc(C(C=Cc3ccc(C(=O)O)cc3F)=NO)ccc21
Ki (µM): 14
//
Compound: CC1(C)CCC(C)(C)c2nc(C(C=Cc3ccc(C(=O)O)cc3)=NO)cnc21 [drawing 34]
Ki (µM): 27
//
Compound: CC1(C)CCC(C)(C)c2cc(C(C=Cc3ccc(C(=O)O)cc3)=NO)ccc21 [drawing 9]
Ki (µM): 2.4

a. CC1(C)CCSc2ccc(C(C=Cc3ccc(C(=O)O)cc3)=NO)cc21 [drawing 18]
b. CC1(C)CCC(C)(C)c2cc(C(C=Cc3ccc(C(=O)O)cc3F)=NO)ccc21 [drawing 10]
Hi, I'm comparing two records. Which one has the lower Ki, a or b ? Write the label of whichever entry you select. a
(a: 5 µM, b: 8 µM)

P. CC1(C)CCC(C)(C)c2cc(C(C=Cc3ccc(C(=O)O)cc3F)=NO)ccc21 [drawing 11]
Q. CC1(C)CCCc2ccc(C(C=Cc3ccc(C(=O)O)cc3)=NO)cc21 [drawing 14]
R. CC1(C)CCCc2cc(C(C=Cc3ccc(C(=O)O)cc3)=NO)ccc21 [drawing 17]
S. CC1(C)CCCc2ccc(C(/C=C/c3ccc(C(=O)O)cc3F)=N/O)cc21
Order the 4 compounds from highest to lowest Ki. Respond with an ordered listing of the labels, as requested. Q, R, P, S

1. Cc1cc2c(cc1C(C=Cc1ccc(C(=O)O)cc1)=NO)C(C)(C)CCC2(C)C [drawing 37]
2. CC1(C)CCC(C)(C)c2nc(C(C=Cc3ccc(C(=O)O)cc3)=NO)cnc21 [drawing 35]
3. CC1(C)CC(C)(C)c2cc(C(/C=C/c3ccc(C(=O)O)cc3F)=N\O)ccc21
4. CC1(C)CCC(C)(C)c2cc(C(C=Cc3ccc(C(=O)O)cc3)=NO)ccc21 [drawing 8]
Endpoint returns the given compounds ordered by ascending Ki. Respond with an ordered listing of the labels, as requested. 4, 1, 3, 2
(4: 2.5 µM, 1: 8 µM, 3: 13 µM, 2: 25 µM)

====

Let's go through some recorded Ki values for RARα (Homo sapiens) together.
Experimental endpoint: Ki (µM)

Please review the entries below; each comes with its answer.
Molecule: CC1(C)CCSc2ccc(C(C=Cc3ccc(C(=O)O)cc3)=NO)cc21 [drawing 20]
Units text: µM
Ki: 4.5
//
Molecule: CC1(C)CCCc2cc(C(C=Cc3ccc(C(=O)O)cc3)=NO)ccc21 [drawing 16]
Units text: µM
Ki: 2
//
Molecule: CC1(C)CCCc2ccc(C(/C=C/c3ccc(C(=O)O)cc3F)=N\O)cc21
Units text: µM
Ki: 2.1
//
Molecule: CC1(C)CCSc2ccc(C(/C=C/c3ccc(C(=O)O)cc3F)=N\O)cc21
Units text: µM
Ki: 10
//
Molecule: CC1(C)CC(C)(C)c2cc(C(C=Cc3ccc(C(=O)O)cc3)=NO)ccc21 [drawing 31]
Units text: µM
Ki: 6

a. CC1=CCC(C)(C)c2cc(C(/C=C/c3ccc(C(=O)O)cc3)=N\O)ccc21
b. CC1(C)CCSc2ccc(C(/C=C/c3ccc(C(=O)O)cc3F)=N/O)cc21
Higher Ki between a and b ? Write the label of whichever entry you select. b
